Target: hERG potassium channel (Homo sapiens (Human))
Sequence (Q12809 whole entry): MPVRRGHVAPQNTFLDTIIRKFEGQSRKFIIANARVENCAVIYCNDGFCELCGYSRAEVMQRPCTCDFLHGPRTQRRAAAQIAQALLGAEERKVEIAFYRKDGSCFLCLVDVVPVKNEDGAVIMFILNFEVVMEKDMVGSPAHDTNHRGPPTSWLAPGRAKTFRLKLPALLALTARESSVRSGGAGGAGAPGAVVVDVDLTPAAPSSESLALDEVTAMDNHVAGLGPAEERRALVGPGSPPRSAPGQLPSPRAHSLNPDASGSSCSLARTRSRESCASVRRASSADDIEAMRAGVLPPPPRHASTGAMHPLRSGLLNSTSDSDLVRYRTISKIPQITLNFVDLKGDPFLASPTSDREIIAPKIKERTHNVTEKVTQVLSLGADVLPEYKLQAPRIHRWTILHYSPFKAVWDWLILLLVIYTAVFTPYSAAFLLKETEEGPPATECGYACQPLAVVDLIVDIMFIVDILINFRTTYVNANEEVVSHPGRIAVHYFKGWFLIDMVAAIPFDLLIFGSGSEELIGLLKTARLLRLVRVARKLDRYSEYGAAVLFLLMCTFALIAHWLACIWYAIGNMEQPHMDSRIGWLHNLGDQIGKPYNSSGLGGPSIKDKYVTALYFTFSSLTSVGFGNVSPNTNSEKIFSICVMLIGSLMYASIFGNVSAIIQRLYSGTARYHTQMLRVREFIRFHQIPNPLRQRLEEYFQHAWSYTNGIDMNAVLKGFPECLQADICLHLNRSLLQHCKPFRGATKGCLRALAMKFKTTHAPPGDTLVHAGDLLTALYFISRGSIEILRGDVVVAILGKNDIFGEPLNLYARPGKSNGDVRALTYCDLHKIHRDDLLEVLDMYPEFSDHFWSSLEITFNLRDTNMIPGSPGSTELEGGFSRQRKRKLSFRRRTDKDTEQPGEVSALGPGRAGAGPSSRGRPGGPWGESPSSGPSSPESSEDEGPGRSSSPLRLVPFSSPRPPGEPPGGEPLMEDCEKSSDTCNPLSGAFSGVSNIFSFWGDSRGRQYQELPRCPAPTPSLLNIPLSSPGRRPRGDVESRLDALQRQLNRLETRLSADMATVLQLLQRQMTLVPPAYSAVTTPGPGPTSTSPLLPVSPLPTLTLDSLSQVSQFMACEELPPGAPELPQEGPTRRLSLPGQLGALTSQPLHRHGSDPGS
Assay: hERG whole-cell patch-clamp in stably transfected CHO cells
Assay type: cell-based
One threshold, 20, splits the recorded Ratio hERG IC20/hTAAR1 EC50 values: lower ones are yes, equal or higher ones are no.

smiles_representation=O=C(Nc1ccc([C@H]2CNCCO2)cc1)c1ccn(-c2ccccc2)n1 class_label=yes
smiles_representation=O=C(Nc1ccc([C@H]2CNCCO2)cc1)c1ccnc(Cl)c1 class_label=no
smiles_representation=O=C(Nc1ccc([C@H]2CNCCO2)cc1)c1cc(Cl)nc(Cl)c1 class_label=no

Here's an entry: Cc1cc(C(=O)Nc2ccc([C@H]3CNCCO3)cc2)cc(Cl)n1 . Is its Ratio hERG IC20/hTAAR1 EC50 below 20? no

Ok, now Cc1nc(C(=O)Nc2ccc([C@H]3CNCCO3)cc2)cs1 yes

Ok, now O=C(Nc1ccc([C@H]2CNCCO2)cc1)c1cncc(Cl)c1 no

###

Molecular target: human TAAR1 (Homo sapiens (Human), UniProt Q96RJ0)
Sequence (Q96RJ0 whole entry): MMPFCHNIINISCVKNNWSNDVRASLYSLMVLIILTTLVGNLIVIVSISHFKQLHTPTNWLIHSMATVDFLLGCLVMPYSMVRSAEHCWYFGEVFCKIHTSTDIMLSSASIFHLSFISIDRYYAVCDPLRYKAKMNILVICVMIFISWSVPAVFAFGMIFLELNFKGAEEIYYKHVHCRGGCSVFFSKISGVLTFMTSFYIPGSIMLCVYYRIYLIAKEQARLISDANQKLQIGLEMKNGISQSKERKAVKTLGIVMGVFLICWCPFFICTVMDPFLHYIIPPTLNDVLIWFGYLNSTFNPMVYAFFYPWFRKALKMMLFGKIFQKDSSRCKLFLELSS
Test: cAMP functional assay in HEK293 cells expressing human TAAR1
Format: cell-based
Conditions: cAMP, HEK293 cells expressing human TAAR1; listed as example 12; read-out: hTAAR1 EC50
reported_endpoint: pEC50
Numbers only, as −log10 of the molar value.

// query pEC50 value for entry O=C(Nc1ccc([C@H]2CNCCO2)cc1)c1ccc(Cl)cn1 [Example 12] 6.67

###

Molecular target: UniProtKB Q96RJ0
Assay: cAMP functional assay in HEK293 cells expressing human TAAR1
Format: cell-based
Settings: % agonist activity, β-phenylethylamine = 100% agonism
Would you kindly list hTAAR1 efficacy* for each of these compounds?
Give bare numbers, in %.

smiles_representation=O=C(Nc1ccc([C@H]2CNCCO2)cc1)c1cncc(Cl)c1 reported_endpoint="hTAAR1 efficacy*" data_value=37
smiles_representation=Cc1cc(C(=O)Nc2ccc([C@H]3CNCCO3)cc2)cc(Cl)n1 reported_endpoint="hTAAR1 efficacy*" data_value=53
smiles_representation=CCc1[nH]nc(C(=O)Nc2ccc([C@@H]3CNCCO3)cc2)c1C reported_endpoint="hTAAR1 efficacy*" data_value=38
smiles_representation=O=C(Nc1ccc([C@H]2CNCCO2)cc1)c1cnc(Cl)c(Cl)c1 reported_endpoint="hTAAR1 efficacy*" data_value=32
smiles_representation=O=C(Nc1ccc([C@H]2CNCCO2)cc1)c1ccnc(Cl)c1 reported_endpoint="hTAAR1 efficacy*" data_value=40

Batch lookup, hTAAR1 efficacy* per entry.
1. O=C(Nc1ccc([C@H]2CNCCO2)cc1)c1ccc(Cl)nc1
2. Cc1nc(C(=O)Nc2ccc([C@H]3CNCCO3)cc2)cs1
3. N#Cc1ccc(C(=O)Nc2ccc([C@H]3CNCCO3)cc2)cn1
4. CCc1[nH]nc(C(=O)Nc2ccc([C@H]3CNCCO3)cc2)c1C

1: 49; 2: 32; 3: 38; 4: 42

Batch lookup, hTAAR1 efficacy* per entry.
1. O=C(Nc1ccc([C@H]2CNCCO2)cc1)c1ccc(C(F)(F)F)nc1
2. O=C(Nc1ccc([C@H]2CNCCO2)cc1)c1coc(-c2ccccc2)n1

[46, 35]

###

Target: human DAT (Homo sapiens (Human))
Sequence (Q01959 whole entry): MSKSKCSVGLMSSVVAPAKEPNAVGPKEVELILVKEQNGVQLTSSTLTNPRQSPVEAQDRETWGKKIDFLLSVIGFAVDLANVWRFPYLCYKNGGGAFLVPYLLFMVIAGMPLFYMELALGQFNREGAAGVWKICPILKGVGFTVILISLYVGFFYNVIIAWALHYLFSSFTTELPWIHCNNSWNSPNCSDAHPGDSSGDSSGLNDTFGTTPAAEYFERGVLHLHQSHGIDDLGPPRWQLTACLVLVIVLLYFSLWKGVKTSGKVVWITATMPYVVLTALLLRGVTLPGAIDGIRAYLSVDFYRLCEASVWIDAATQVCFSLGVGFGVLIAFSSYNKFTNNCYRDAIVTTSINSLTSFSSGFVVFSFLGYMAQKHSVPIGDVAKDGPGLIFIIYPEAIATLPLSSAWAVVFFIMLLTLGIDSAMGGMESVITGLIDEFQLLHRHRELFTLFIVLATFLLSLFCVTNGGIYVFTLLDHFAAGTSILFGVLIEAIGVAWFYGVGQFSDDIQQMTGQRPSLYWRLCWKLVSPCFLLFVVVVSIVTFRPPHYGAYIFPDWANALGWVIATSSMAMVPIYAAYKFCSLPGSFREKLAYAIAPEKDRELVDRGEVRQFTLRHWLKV
Experiment: Binding to dopamine transporter (DAT) in vitro, [3H]-WIN35,428 SPA
Would you kindly list Ratio DAT Ki/hTAAR1 EC50 for each of these compounds?
One number for each entry.

Batch lookup, Ratio DAT Ki/hTAAR1 EC50 per entry.
1. O=C(Nc1ccc([C@H]2CNCCO2)cc1)c1cncc(Cl)c1
2. O=C(Nc1ccc([C@H]2CNCCO2)cc1)c1csc(-c2ccccc2)n1
3. N#Cc1ccc(C(=O)Nc2ccc([C@H]3CNCCO3)cc2)cn1
4. O=C(Nc1ccc([C@H]2CNCCO2)cc1)c1cc(Cl)nc(Cl)c1
5. Cc1c(C(=O)Nc2ccc([C@H]3CNCCO3)cc2)n[nH]c1-c1ccccc1

[3, 24, 62, 9, 90]
